Recorded values, source PubChem BioAssay (NCI).

Consider the following compounds; for each one, report its TGI.
system: SF-539 CNS; test: NCI tumour cell line growth inhibition, 48 h

Recorded results for 5 compounds are shown here.
Asked: Would you mind telling me what TGI value was observed for "COC(=O)c1c(O)ccc2c1c1c(n2C)C(=O)c2ccccc2C1=O" ?
Given back: 65.1 µM

Asked: What value of TGI has been recorded for this entry: "NS(=O)(=O)c1ccc(/C=C/c2cccc(O)c2)cc1"
Given back: > 100 µM

Asked: Fill in the blank: the reported TGI of "Cn1c2ccccc2n2c3nc4ccccc4nc3c(C#N)c12" is ____.
Given back: > 100 µM

Asked: // returns reported TGI for input "c1ccc(N=NNNc2ccc(-c3nc4ccccc4[nH]3)cc2)cc1"
Given back: > 100 µM

Asked: Which value of TGI has been reported for "O=[N+]([O-])C(=C(NCc1ccccc1)NCc1ccccc1)C(Cl)=C(Cl)Cl" in the records?
Given back: > 100 µM

Provide reported TGI for each item, in the same order as listed.
1. C=C(CNCCO)[C@@H]1CC[C@]2(CO)CC[C@]3(C)[C@H](CC[C@@H]4[C@@]5(C)CCC(NCCc6ccc(O)cc6)C(C)(C)[C@@H]5CC[C@]43C)[C@@H]12 (stereo not given in full)
2. CC[C@@]1(OC(=O)CCC(=O)O)C(=O)OCc2c1cc1n(c2=O)Cc2cc3ccccc3nc2-1
3. COC(=O)C12C3C4C1C1C2C3C41I (stereo not given)
4. CCOC(=O)C(=O)Nc1c(C)cccc1CC
5. NC(N)=NNC(=O)C(=O)O

Given back:
2.91 µM
0.238 µM
> 100 µM
> 100 µM
> 100 µM
